Source listed as paper PMC7156458.

# testTarget: Aβ42 (Homo sapiens, UniProt P05067)
# Sequence (P05067 672-713): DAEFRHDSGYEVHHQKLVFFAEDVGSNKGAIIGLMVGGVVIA
# assayInfo: Th-T (thioflavin-T) assay of Aβ42 aggregation
# Assay type: biochemical
# assayConditions: column suffix _10; reading M14
# Th-T assay signal, mean of three wells (Fig. 7a) listing for each entry below
endpointName: Th-T assay signal, mean of three wells (Fig. 7a)

- C=C1CCC2C(C)(CCC=C(C)C)C(O)CCC2(C)C1Cc1c(OC)oc(CO)c(C)c1=O (centres unmarked): 1.582
- C=C1CC[C@@H]2[C@](C)(CC[C@H]3O[C@H](C=C(C)C)C[C@@]23C)[C@@H]1Cc1c(OC)oc(CO)c(C)c1=O: 1.585
- C=C1CCC2C(C)(CCC=C(C)C)C(O)CCC2(C)C1Cc1c(OC)oc(C)c(C(=O)OC)c1=O (centres unmarked): 0.8811
- C=C1CC[C@@H]2[C@](C)(CC[C@H]3O[C@H](C=C(C)C)C[C@@]23C)[C@@H]1Cc1c(OC)oc(CO)c(C(=O)OC)c1=O: 0.2201
- C=C1CCC2C(C)(CCC=C(C)C)C(O)CCC2(C)C1Cc1c(OC)oc(CO)c(C(=O)OC)c1=O (centres unmarked): 0.2289
